# tgt: HLA-DR (DRA1*01:01 / DRB1*14:54), soluble knob-into-hole Fc heterodimer (human)
# measurementDescription: ELISA
readoutKind: pKi
// pKi here means minus log10 of the molar concentration (mol/L)

Return reported pKi; argument: KPVSKMRMATPLLMQALPM [human CLIP peptide, unlabelled competitor]
8.04

Source listed as paper doi:10.1101/2025.06.05.658000.
